test system: SNB-19 CNS; experiment: NCI tumour cell line growth inhibition, 48 h
Where a SMILES comes first, the peptide text is derived from it. Bridges are numbered along the chain shown (N, C = ends). Roman numbers before positions name the chains, in order. [ ]: non-standard residue; d: D form. The star is where a group is joined. Quinoxaline2carbonyl = O=C(c1cnc2ccccc2n1)*; NMeV = CN[CH](C(=O)O)C(C)C; NMeC = CN[CH](CS)C(=O)O

{"columns": ["Molecule", "Target or test system", "TGI"],
 "data": [
  ["N#C/C(=C\\c1c[nH]c2ccccc12)C(=O)c1ccc(O)c(O)c1", "SNB-19 CNS", "98.1 µM"],
  ["Nc1ccc(CCN2CCN(CCCc3ccccc3)CC2)cc1", "SNB-19 CNS", "> 100 µM"],
  ["FC(F)(F)c1ccc2nc(Sc3ccccn3)cnc2c1", "SNB-19 CNS", "86.8 µM"],
  ["O=C([CH-]C(=O)c1ccccc1)c1ccccc1.O=C([CH-]C(=O)c1ccccc1)c1ccccc1.[OH-].[OH-].[Ti+4]", "SNB-19 CNS", "> 100 µM"],
  ["COc1ccc2c(c1OC)C(=O)OC2C1c2c(c([N+](=O)[O-])c3c(c2OC)OCO3)CCN1C (stereo not drawn)", "SNB-19 CNS", "> 100 µM"],
  ["C=C1CCC2[C@@H](CCC3[C@]2(C)CCC[C@]3(C)C(=O)OC)[C@@H]1CC=O (stereo partly drawn)", "SNB-19 CNS", "> 100 µM"],
  ["COC(=O)c1c(O)ccc2c1C1(Cc3ccccc3C1=O)C(O)O2 (stereo not drawn)", "SNB-19 CNS", "> 100 µM"],
  ["CCN1C(=O)N(CC)C2C1NN=c1s/c(=C\\c3ccccc3Br)c(=O)n12 (stereo not drawn)", "SNB-19 CNS", "> 67.9 µM"],
  ["C[C@@H]1O[C@@H](OC[C@H]2O[C@@H](OCCc3ccc(O)c(O)c3)[C@H](O)[C@@H](O)[C@@H]2OC(=O)/C=C/c2ccc(O)c(O)c2)[C@H](O)[C@H](O)[C@H]1O", "SNB-19 CNS", "> 100 µM"],
  ["CC1(C)C2CCC13CS(=O)(=O)N1O[C@]13C(=O)O2 (stereo partly drawn)", "SNB-19 CNS", "> 100 µM"],
  ["CC1(C)OCC(C(O)C2OC(C)(C)OC2/C=N\\O)O1 (stereo not drawn)", "SNB-19 CNS", "> 100 µM"],
  ["COc1ccc2c(c1)OC1=C(C(=O)OC1)C2c1cc(OC)c2c(c1)OCO2 (stereo not drawn)", "SNB-19 CNS", "> 100 µM"],
  ["CN(CCCCCl)P(=O)(OCCS(=O)(=O)CC(NC(=O)CCC(N)C(=O)O)C(=O)NC(C(=O)O)c1ccccc1)OCC1OC(n2cc(F)c(=O)[nH]c2=O)CC1O (stereo not drawn)", "SNB-19 CNS", "> 100 µM"],
  ["N#Cc1ccc(N=Cc2c([O-])ccc3ccccc23)cc1.[C-]#[O+].[C-]#[O+].[Ir]", "SNB-19 CNS", "33.2 µM"],
  ["CCO/C=C1\\N=C(c2ccccc2Br)OC1=O", "SNB-19 CNS", "> 100 µM"],
  ["CC1CN1c1c(C(=O)/C=C/c2ccccc2)c(-c2ccccc2)nn(C)c1=O (stereo not drawn)", "SNB-19 CNS", "50.2 µM"],
  ["COc1cc(-c2cc(-c3cc([N+](=O)[O-])c(/C=N/NC(=O)c4ccncc4)o3)ccc2OC)ccc1C", "SNB-19 CNS", "> 100 µM"],
  ["C#CCOc1cccc(Nc2ncnc3c(NC(=O)CCl)cccc23)c1", "SNB-19 CNS", "> 100 µM"],
  ["C#CCOCC12C=CC(O1)C1C(=O)OCC12 (stereo not drawn)", "SNB-19 CNS", "> 100 µM"],
  ["CC1NC(=O)C(NC(=O)c2cnc3ccccc3n2)COC(=O)C(C(C)C)N(C)C(=O)C2CSSCC(C(=O)N(C)C(C(C)C)C(=O)OCC(NC(=O)c3cnc4ccccc4n3)C(=O)NC(C)C(=O)N2C)N(C)C1=O (stereo not drawn) (I: Quinoxaline2carbonyl-SA[NMeC][NMeV] / II: Quinoxaline2carbonyl-SA[NMeC][NMeV]; ester I:1-II:C, I:C-II:1; disulfide I:3-II:3; configuration not given here)", "SNB-19 CNS", "> 100 µM"],
  ["CCOc1ccc(-n2nnc3c(N)nc(N)nc32)cc1", "SNB-19 CNS", "> 100 µM"],
  ["CCN(CC)CCNCc1cc(Cl)cc2c1OCOC2", "SNB-19 CNS", "> 10 µM"],
  ["COc1ccc(/C=N/NC(=O)Cn2c(-c3ccc(S(C)(=O)=O)cc3)nc3cc(Cl)ccc32)cc1", "SNB-19 CNS", "> 50 µM"]
]}
